Tested on: OVCAR-3 ovarian
EXPERIMENT_NOTES: NCI tumour cell line growth inhibition, 48 h
Each entry below carries its reported TGI.

Past entries and their recorded results:
COMPOUND: O=c1c2cccc(Cl)c2sc2c(NCCCNCCO)nc3ccccc3c12
MEASURED_ON: OVCAR-3 ovarian
TGI: 6.19 µM
--
COMPOUND: C/C=C(\C)C(=O)N[C@H]1CC[C@]2(C)C3CC[C@@]4(C)C(CC[C@@H]4C(C)N(C)C)C3CCC2[C@H]1OC(C)=O (stereo not given in full)
MEASURED_ON: OVCAR-3 ovarian
TGI: 4.34 µM
--
COMPOUND: O=C1/C(=C/C=C/c2ccccc2)N=C(c2ccccc2)N1C1Nc2cc3c(cc2S1)NC(N1C(=O)/C(=C/C=C/c2ccccc2)N=C1c1ccccc1)S3 (stereo not given)
MEASURED_ON: OVCAR-3 ovarian
TGI: > 100 µM
--
COMPOUND: CC(C)=CC1C(COC(=O)c2cc3c(cc2Cl)OCO3)C1(C)C (stereo not given)
MEASURED_ON: OVCAR-3 ovarian
TGI: 65.1 µM

Query: GET /values?readout=TGI&item= CC(=O)c1cccc(NC(=O)/C(=N\NC(C)(C)C)c2c(O)c3ccccc3oc2=O)c1
Result: > 100 µM

###

System: SR leukemia
EXPERIMENT_NOTES: NCI tumour cell line growth inhibition, 48 h
MEASUREMENT_KIND: TGI

Query: GET /values?readout=TGI&item= COc1ccc(N2C(=O)C3c4[nH]c5ccccc5c4C4CCCCCCCCCCC4C3C2=O)cc1 (stereo unspecified)
Result: > 20.3 µM

Query: GET /values?readout=TGI&item= C#CCOC(=O)c1ccccc1O
Result: > 100 µM

Query: GET /values?readout=TGI&item= Cc1nc(Cl)nc(Cl)c1C
Result: > 100 µM

###

Each entry below carries its reported TGI.
System: T-47D breast
EXPERIMENT_NOTES: NCI tumour cell line growth inhibition, 48 h

Past entries and their recorded results:
MOLECULE_SMILES: C#CCOC(=O)c1ccccc1O
OBSERVED: > 100 µM
//
MOLECULE_SMILES: CC(C)CNC(=O)CCc1cccc2c1oc1c(CCN)cccc12
OBSERVED: 37.1 µM
//
MOLECULE_SMILES: O=C(/C=C(\O)c1ccc(Cl)cc1)C(=O)N=Nc1c(O)[nH]c2ccc(Br)cc12
OBSERVED: > 100 µM

Now for another entry.
Query: Lab request: please report TGI under test system T-47D breast for CCCCCCCCCCCCCC(=O)O[C@H]1CC[C@H](NC(=O)[C@H](OC)[C@H](O)[C@@H](O)[C@H](O)/C=C/C(C)C)C(=O)NC1
Result: > 100 µM

###

Test system: MDA-N
EXPERIMENT_NOTES: NCI tumour cell line growth inhibition, 48 h
Where a SMILES comes first, the peptide text is derived from it. The star is where a group is joined. Boc = CC(C)(C)OC(=O)*
Each entry below carries its reported TGI.

Query: GET /values?readout=TGI&item= CC(=N/NC(=S)N1CCCCC1)/C(=N\NC(=S)N1CCCCC1)c1ccccc1
Result: 7.64 µM

Query: GET /values?readout=TGI&item= C=CC(Cl)(CBr)CCC(Br)=C(C)C (stereo not drawn)
Result: 40.8 µM

Query: GET /values?readout=TGI&item= OCC(CN1CCCCC1)(CN1CCCCC1)CN1CCCCC1
Result: > 100 µM

Query: GET /values?readout=TGI&item= O=C(Nc1cc(C(=O)Nc2cccc(S(=O)(=O)O)c2)cc(C(=O)Nc2cccc(S(=O)(=O)O)c2)c1)c1cccc(C(=O)Nc2cc(C(=O)Nc3cccc(S(=O)(=O)O)c3)cc(C(=O)Nc3cccc(S(=O)(=O)O)c3)c2)c1
Result: > 100 µM

Query: GET /values?readout=TGI&item= Cc1nc(C)c(C(=O)NNC(=O)Cc2ccccc2)cc1C(=O)NNC(=O)Cc1ccccc1
Result: > 100 µM

Query: GET /values?readout=TGI&item= CC(NC(=O)C(NC(=O)OC(C)(C)C)C(C)C)C(=O)N1CCCC1C(=O)NCC(=O)NC(C(=O)NCC(=O)O)C(C)C (stereo not drawn) (Boc-VAPGVG-OH; configuration not given here)
Result: > 100 µM

Query: GET /values?readout=TGI&item= CC(C)(C)OC(=O)N(O)[C@@H]1C=C[C@H](n2cnc3c(N)ncnc32)C1
Result: > 100 µM

Query: GET /values?readout=TGI&item= COc1ccc(N(C)S(=O)(=O)c2ccccc2)cc1
Result: > 100 µM

###

Each entry below carries its reported TGI.
Test system: PC-3 prostate
EXPERIMENT_NOTES: NCI tumour cell line growth inhibition, 48 h

Past entries and their recorded results:
MOLECULE_SMILES: CCOC(=O)Cc1nnc2c(-c3ccccc3)nc3ccccc3n12
OBSERVED: > 100 µM

MOLECULE_SMILES: CCSc1nc(N)c2c(-c3ccc(OC)c(OC)c3)c3c(nc2n1)CCCC3
OBSERVED: > 100 µM

Now for another entry.
Query: GET /values?readout=TGI&item= CN(NC(=O)c1ccco1)C1=NCCN1
Result: > 100 µM

###

Tested on: NCI-H522 lung
EXPERIMENT_NOTES: NCI tumour cell line growth inhibition, 48 h
Each entry below carries its reported TGI.

Query: GET /values?readout=TGI&item= Cn1nccc1Nc1nccc(-c2cc3c(s2)C(C)(C)N(CCN2CCOCC2)C3=O)n1
Result: > 100 µM

Query: GET /values?readout=TGI&item= COc1cc(C2c3cc4c(cc3OC(NC3CCCCC3)C2C)OCO4)cc(OC)c1OC (stereo not drawn)
Result: 2.28 µM

Query: GET /values?readout=TGI&item= CCCCCCCC1(N=[N+]=[N-])C(=O)c2ccccc2N(C)C1=O (stereo not drawn)
Result: > 100 µM

###

Test system: COLO 205 colon
EXPERIMENT_NOTES: NCI tumour cell line growth inhibition, 48 h
Each entry below carries its reported TGI.

Past entries and their recorded results:
COMPOUND: Cc1ccc(NC(=O)C(=O)C2C(=O)N(c3ccccc3)N=C2N)cc1C (stereo not drawn)
MEASURED_ON: COLO 205 colon
TGI: > 100 µM
--
COMPOUND: C/C(CC(=O)Nc1ccc(Cl)c(Cl)c1)=N/NC(=O)C[n+]1ccccc1
MEASURED_ON: COLO 205 colon
TGI: > 100 µM

Query: GET /values?readout=TGI&item= COc1ccccc1OCC(=O)Nc1sc2c(c1C(N)=O)CCC2
Result: > 100 µM

###

Each entry below carries its reported TGI.
System: RXF 393 renal
EXPERIMENT_NOTES: NCI tumour cell line growth inhibition, 48 h

Past entries and their recorded results:
COMPOUND: OCC(CN1CCCCC1)(CN1CCCCC1)CN1CCCCC1
TGI: > 100 µM

COMPOUND: N#Cc1ccc(Oc2nc3ccccc3nc2-c2ccccc2)cc1
TGI: > 100 µM

COMPOUND: S=C1SC(=Nc2ccccc2)C(=Nc2ccccc2)N1c1ccccc1
TGI: > 100 µM

Query: GET /values?readout=TGI&item= COc1cc(OC)cc(Oc2nc3ccccc3nc2C(=O)O)c1
Result: > 100 µM

Query: GET /values?readout=TGI&item= COc1ccc(N(C)S(=O)(=O)c2ccccc2)cc1
Result: > 100 µM

Query: GET /values?readout=TGI&item= C/C=C(C)/C=C/CC(C)CCC=C(C)C (stereo unspecified)
Result: > 100 µM

###

Each entry below carries its reported TGI.
Test system: NCI-H522 lung
EXPERIMENT_NOTES: NCI tumour cell line growth inhibition, 48 h

COMPOUND: C=CCCCC1CCCNC1=O (stereo not drawn)
MEASUREMENT_KIND: TGI
OBSERVED: > 100 µM

COMPOUND: CN1C(=O)c2ccccc2NC(=O)c2cnn(C)c21
MEASUREMENT_KIND: TGI
OBSERVED: > 100 µM

Now for another entry.
Query: Lab request: please report TGI under test system NCI-H522 lung for COc1ccc2c(c1)c(=O)c1ccccc1n2/C=C/C(=O)O
Result: > 100 µM

###

System: MDA-MB-231 breast
EXPERIMENT_NOTES: NCI tumour cell line growth inhibition, 48 h
Each entry below carries its reported TGI.

MOLECULE: CC1Cc2c(Br)nc(N)nc2NC1=O (centres undefined)
MEASURED_ON: MDA-MB-231 breast
OBSERVED: > 100 µM
--
MOLECULE: COc1ccc2c(c1)c(-c1ccc(-c3cn(S(=O)(=O)c4ccccc4)c4ccc(OC)cc34)s1)cn2S(=O)(=O)c1ccccc1
MEASURED_ON: MDA-MB-231 breast
OBSERVED: > 100 µM
--
MOLECULE: CC(=O)N1c2ccccc2C23CCN(C)CC4C(C)OCC(C4CC2=O)C13 (centres undefined)
MEASURED_ON: MDA-MB-231 breast
OBSERVED: > 100 µM

Now for another entry.
Query: GET /values?readout=TGI&item= O=c1cc(-c2ccccc2)[nH]c2cc(F)c(F)cc12
Result: > 77.2 µM
